The measured values listed here are drawn from ChEMBL document CHEMBL1201862.

Tested on: DLD-1
Experiment: NCI tumour cell line growth inhibition, 48 h
Calls of active or inactive are those of the source. Rule as the data show it: active = GI50 up to about 1.1 µM and inactive = higher.
I would appreciate it if you answered using one of these outcomes: active, inactive

[[record]]
molecule = "O=C(NCc1ccccc1)c1cc2cc(O)c(O)cc2cn1"
class_assignment = "inactive"


Now for another entry.
Exercise: Could you check what this test reported for `COC(=O)C1=CNC(C(=O)OC)=NN1` ?
Key: inactive

###

Test system: SNB-75
Assay: NCI tumour cell line growth inhibition, 48 h
Calls of active or inactive are those of the source. No stated cut-off is given here; in the data, active = GI50 up to about 1.1 µM and inactive = higher.
I would appreciate it if you answered using one of these outcomes: active, inactive

Observe how each entry below is paired with its result.
[[record]]
compound = "COC(=O)NN=C1C(C)(C)C(=NNC(=O)OC)C1(C)C"
assay_system = "SNB-75"
class_assignment = "inactive"

[[record]]
compound = "O=c1[nH]c(=O)n(C2CC(O)C(CO)O2)cc1C#Cc1cc(C(F)(F)F)cc(C(F)(F)F)c1 (stereo not given)"
assay_system = "SNB-75"
class_assignment = "inactive"

[[record]]
compound = "CCCCCCCCCCCCCCCC1(OC)C[N+](C)(C)CCO1 (stereo not given)"
assay_system = "SNB-75"
class_assignment = "active"

[[record]]
compound = "COc1ccccc1/[N+]([O-])=C/c1ccccc1OC(=S)S"
assay_system = "SNB-75"
class_assignment = "inactive"

[[record]]
compound = "O=C(Nc1nnc(-c2ccccc2)o1)C(SC(=S)N1CCOCC1)c1ccccc1 (stereo not given)"
assay_system = "SNB-75"
class_assignment = "inactive"

[[record]]
compound = "O=C(O)c1ccc(N2C=[N+]3C(=Nc4ccccc43)C2)cc1"
assay_system = "SNB-75"
class_assignment = "inactive"


Exercise: Could you check what this test reported for `O=c1[nH]nc(N/N=C\c2ccc(Cl)cc2)c2ccccc12` ?
Key: inactive
